- TEST DESCRIPTION: inhibitors of TNFa-induced NFkB p65 translocation, primary screen, imaging, HUVEC, MLSMR starter and 10KST1 sets (AID 438);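 further: compound added about 3h40 before a 20 min TNFalpha stimulation; signal is the nuclear over cytoplasmic p65 intensity ratio per well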
- TEST CONTEXT: HUVEC TNFa-induced p65 nuclear translocation; at 2 µM, stronger effect = higher value, 0% TNFa-plus-vehicle, 100% no-TNFa wells
Activity calls are given as the source filed them.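 How the source made its calls: active means inhibition above 20% together with a positive visual image hit; inconclusive means visual image hit but inhibition not above 20%; inactive means no visual image hit.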
Each entry below carries its reported inhibition.

COMPOUND	inhibition
Cc1[nH]nc2c1C(C1CC=CCC1)C(C#N)=C(N)O2 (stereo not drawn)	6.7% (inactive)
Cc1cc(=O)[nH]c(S/C=C/c2ccccc2)n1	-1.8% (inactive)
COc1ccccc1CC(=O)NCC1CCCO1 (stereo not drawn)	-15.9% (inactive)
CSc1ncc(Cl)c(C(=O)Nc2ccc(S(=O)(=O)N3CCOCC3)cc2)n1	-0.8% (inactive)
CCOc1ccc(S(=O)(=O)Nc2cccc(Cl)c2)cc1	-2.9% (inactive)
O=C(CCC(=O)OCCCC(F)(F)C(F)(F)F)NC1CCCCC1	4% (inactive)
COc1ccc(-c2nnc(SCc3nnc(-c4ccc(Cl)cc4)o3)n2-c2ccccc2)cc1	-13.6% (inactive)
Cc1nc2cc(CO)ccc2n1C	4.7% (inactive)
COc1ccc(/C=N/n2c(=O)[nH]c3c([nH]c4ccc(C)cc43)c2=O)cc1CN1CCOCC1	2.6% (inactive)
CCOc1nc(NCCC2=CCCCC2)nc(N2CCOCC2)n1	2.7% (inactive)
CCC(c1nnc(SCC(=O)Nc2ccc(C(=O)Nc3ccccc3OC)cc2)o1)N(C)C (stereo not drawn)	2.9% (inactive)
COc1ccc(C(=O)OC(COc2ccccc2)Cn2ccnc2)cc1 (stereo not drawn)	-7.4% (inactive)
CN(CC(=O)N1CCN(c2ccccn2)CC1)S(=O)(=O)c1ccc2ccccc2c1	0.9% (inactive)
Cc1ccc(C)c(CSc2nnc(CCN)o2)c1	-14.5% (inactive)
Cn1c(=O)cc(OCC(=O)NCCCN2CCN(Cc3ccccc3)CC2)c2ccccc21	-6.9% (inactive)
CCOC(=O)c1c(C)n(C)c2c(C)cc(O)c(OC(C)=O)c12	-5% (inactive)
CCCOc1ccccc1NC(=O)c1ccc(N)cc1	7% (inactive)
Cc1cc(C(=O)CSc2nc3ccccc3n2CCC#N)c(C)n1Cc1cccs1	10.6% (inactive)
CCCCN(c1ccccc1)S(=O)(=O)c1ccc2c(c1)CCN2C(=O)CCC(=O)O	1.3% (inactive)
CC(C)(C)NC(=O)Cn1nnnc1-c1nonc1N	9.2% (inactive)
CCOc1ccc(-c2nc(S(=O)(=O)c3ccccc3)c(NCc3cccnc3)o2)cc1	0.6% (inactive)
COc1cccc(NC(=O)CSc2nnc(Cc3cccn3C)n2-c2ccc(F)cc2)c1	-3.3% (inactive)
O=C(Cn1c(=O)[nH]c2ccsc2c1=O)N1CCN(c2ccc(F)cc2)CC1	-29.9% (inactive)

* * *

- TEST DESCRIPTION: reduction of polyQ htt aggregates in cells – imaging, exon1htt(103Q)mCFP cells, high-content imaging, primary screen (AID 483);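 further: compound exposure lasted 3 days before fixation; percent of the per-plate median nuclei count of sample wells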
- TEST CONTEXT: exon1htt(103Q)mCFP cell line, aggregate imaging, at 2 µM; measured here: cell count, toxicity

COMPOUND	nuclei count
CCCc1cn(S(=O)(=O)c2ccc(OC)cc2OC)nc1N	100%
COc1ccc(-c2nnc(SCC(=O)N3CCCCC3)o2)cc1OC	120%
Cn1c(CN2CCOCC2)nnc1SCC(=O)NCCc1ccccc1	118%
COc1ccccc1NC1=C(C)C(=O)CC1	88.4%
COc1ccc(N(C)C(=O)CCS(=O)(=O)c2cccc3nonc23)cc1	108%
CCOC(=O)c1cnc(-n2nc(C)cc2C)nc1N1CC(C)OC(C)C1 (stereo unspecified)	69.8%
COc1ccc(S(=O)(=O)Cc2ccc(C(=O)N3CCOCC3)o2)cc1	93%
Cc1cccc(-n2nnnc2SCc2csc(-c3ccccc3)n2)c1	125%
CC(=O)NC1(C(F)(F)F)NC(=O)N(CC(C)C)C1=O (stereo unspecified)	97.6%
COc1nc(OC)nc(N2CCC(NC(=O)C(Cc3ccc(C(C)C)cc3)NC(C)=O)CC2)n1 (stereo unspecified)	119%
CCCCn1c(SCC(=O)Nc2ccc(OC)cc2)nc2ccc(N3CCOCC3)cc2c1=O	44.4%
